Measured inhibition at 100 µM of individual entries
- Tested on: Colo320 human rectal cancer cells
- EXPERIMENT_DESCRIPTION: CCK-8 proliferation inhibition, Colo320
- Assay type: cell-based
- SETTINGS: Homo sapiens, COLO 320; compound concentration 100 μM, CCK-8 method

{"SMILES_NOTATION": "Nc1cnccc1NC(=O)c1ccc(CNC(=O)CCc2ccccc2)cc1", "inhibition at 100 µM": "33.8%"}
{"SMILES_NOTATION": "Cc1ccc(/C=C/C(=O)NCc2ccc(C(=O)Nc3ccncc3N)cc2)cc1", "inhibition at 100 µM": "58.8%"}
{"SMILES_NOTATION": "Nc1cnccc1NC(=O)c1ccc(CNC(=O)OCc2ccc(F)cc2)cc1", "inhibition at 100 µM": "82.7%"}

====

- Test system: histone deacetylase
- EXPERIMENT_DESCRIPTION: in vitro inhibition of histone deacetylase by HDAC inhibitor screening kit (Biovision K340-100)
- Assay type: biochemical
- SETTINGS: 3.91 μM

{"COMPOUND": "COc1cccc(COC(=O)NCc2ccc(C(=O)Nc3ccncc3N)cc2)c1 [V-95]", "Inhibition rate(%)": "17.2%"}
{"COMPOUND": "COc1cc(CCC(=O)NCc2ccc(C(=O)Nc3cccnc3N)cc2)cc(OC)c1OC [V-54]", "Inhibition rate(%)": "2.2%"}
{"COMPOUND": "Nc1ncccc1NC(=O)c1ccc(CNC(=O)OCc2ccccc2)cc1 [V-8]", "Inhibition rate(%)": "6.3%"}

====

- Test system: histone deacetylase
- EXPERIMENT_DESCRIPTION: in vitro inhibition of histone deacetylase by HDAC inhibitor screening kit (Biovision K340-100)
- Type: biochemical
- SETTINGS: 2 mM

{"COMPOUND": "Nc1cnccc1NC(=O)c1ccc(CNC(=O)/C=C/c2ccccc2)cc1", "ASSAYED_SYSTEM": "histone deacetylase", "UNIT_STRING": "%", "Inhibition rate(%)": 58.6}
{"COMPOUND": "COc1ccc(/C=C/C(=O)NCc2ccc(C(=O)Nc3cccnc3N)cc2)cc1OC", "ASSAYED_SYSTEM": "histone deacetylase", "UNIT_STRING": "%", "Inhibition rate(%)": 55.3}
{"COMPOUND": "Nc1cnccc1NC(=O)c1ccc(CNC(=O)/C=C/c2ccc([N+](=O)[O-])cc2)cc1", "ASSAYED_SYSTEM": "histone deacetylase", "UNIT_STRING": "%", "Inhibition rate(%)": 76.1}
{"COMPOUND": "COc1cccc(/C=C/C(=O)NCc2ccc(C(=O)Nc3ccncc3N)cc2)c1", "ASSAYED_SYSTEM": "histone deacetylase", "UNIT_STRING": "%", "Inhibition rate(%)": 65.7}
{"COMPOUND": "COc1cccc(COC(=O)NCc2ccc(C(=O)Nc3ccncc3N)cc2)c1", "ASSAYED_SYSTEM": "histone deacetylase", "UNIT_STRING": "%", "Inhibition rate(%)": 90.6}
{"COMPOUND": "COc1ccc(/C=C/C(=O)NCc2ccc(C(=O)Nc3ccncc3N)cc2)cc1", "ASSAYED_SYSTEM": "histone deacetylase", "UNIT_STRING": "%", "Inhibition rate(%)": 67.5}
{"COMPOUND": "COc1cc(COC(=O)NCc2ccc(C(=O)Nc3cccnc3N)cc2)cc(OC)c1OC", "ASSAYED_SYSTEM": "histone deacetylase", "UNIT_STRING": "%", "Inhibition rate(%)": 50.0}
{"COMPOUND": "COc1ccc(COC(=O)NCc2ccc(C(=O)Nc3ccncc3N)cc2)cc1OC", "ASSAYED_SYSTEM": "histone deacetylase", "UNIT_STRING": "%", "Inhibition rate(%)": 85.0}
{"COMPOUND": "Nc1cnccc1NC(=O)c1ccc(CNC(=O)OCc2ccccc2)cc1", "ASSAYED_SYSTEM": "histone deacetylase", "UNIT_STRING": "%", "Inhibition rate(%)": 78.2}
{"COMPOUND": "Nc1ccccc1NC(=O)c1ccc(CNC(=O)OCc2cccnc2)cc1 [MS-275, reference compound]", "ASSAYED_SYSTEM": "histone deacetylase", "UNIT_STRING": "%", "Inhibition rate(%)": 82.2}
{"COMPOUND": "Nc1cnccc1NC(=O)c1ccc(CNC(=O)OCc2cccnc2)cc1", "ASSAYED_SYSTEM": "histone deacetylase", "UNIT_STRING": "%", "Inhibition rate(%)": 77.1}

Where do the numbers come from? From patent US8889876B2.
